This section presents molecules with their documented CC50 at 72 h values.
- PROTOCOL_TEXT: Cytotoxicity against human mesenchymal stem cells assessed as cell viability measured after 72 hrs by MTT assay
- Type: cell-based
READOUT_NAME: CC50 at 72 h (mg/L)

> print(dat)
                                   molecule  readout.name  recorded.number
1  CCCCCCCCCCCCCC(=O)NCCC[N+](C)(C)Cc1ccccc1.[Cl-] [MIRAMISTIN]  CC50 at 72 h             4.16
2  CCCCCCCCCCCCCC(=O)OCC[N+](C)(C)Cc1cnc(C)c2c1COC(C)(C)O2.[Cl-]  CC50 at 72 h             1.08
3  CCCCCCCCCCCCCC(=O)OCC[N+](C)(C)Cc1cnc(C)c2c1COC(CCC)O2.[Cl-] (stereo not given)  CC50 at 72 h             1.28
4  CCCCCCCCCCCCCC(=O)NCCC[N+](C)(C)Cc1cnc(C)c2c1COC(C)(C)O2.[Cl-]  CC50 at 72 h             2.21
5  CCCCCCCCCCCCCC(=O)OCC[N+](C)(C)Cc1nc(C)c2c(c1CO)COC(C)(C)O2.[Cl-]  CC50 at 72 h             1.02

Every entry's value here was drawn from ChEMBL document CHEMBL4819019.
